# SUBJECT_OF_TEST: CDK2/CCNE1 (Homo sapiens, UniProt P24941)
# EXPERIMENT_SUMMARY: CDK2 homogeneous time-resolved fluorescence (HTRF) kinase assay
# Format: biochemical
# CONDITION_DETAILS: CDK2/CCNE; <25 nM; read-out: CDK2/CCNE IC50 <25 nM
pIC50: −log10 of the molar value.
pIC50: recorded values

| COMPOUND | pIC50 |
| --- | --- |
| CCC1(CC)C(=O)Nc2cc(C#Cc3nccc4cnc(Nc5ccc(S(=N)(=O)C6COC6)cc5OC)cc34)ccc21 (single isomer, unassigned) | > 7.60 |
| COc1cc(S(C)(=N)=O)ccc1Nc1cc2c(C#Cc3ccc4c(c3)NC(=O)C43CCC3)nccc2cn1 (single isomer, unassigned) | > 7.60 |

Below: the item to evaluate.
Specify measured pIC50 for CC1(C)C(=O)Nc2cc(C#Cc3nccc4cnc(Nc5ccc(S(C)(=O)=O)cc5C(F)F)cc34)ccc21 .
> 7.60
